B1: library; a variant is named by its letters at N, in order (parent)
chain: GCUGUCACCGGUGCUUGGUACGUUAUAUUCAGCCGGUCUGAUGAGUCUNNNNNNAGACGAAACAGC

Variants of: B1
PROCEDURE_SUMMARY: normalized RNA/DNA level without ligand (relative to sTRSVctl = 100) (log10 (% of sTRSVctl)); HEK293T overexpressing SLC46A1; higher = less ribozyme self-cleavage, higher mRNA level
TEST_CONDITIONS: without (6R,S)-folinic acid; ligand present: no
Entries and their normalized RNA/DNA level without ligand (log10) values follow.
READOUT_NAME: normalized RNA/DNA level without ligand (log10)

MUTATION_LIST | RECORDED_NUMBER
ACGUGG | 1.95
CCUGUC | 2.02
UGCACA | 1.97
GGGGAC | 1.99
GCCUUG | 1.99
UCUCAG | 1.96
AAUGUA | 1.95
CGGCAC | 2.1
UCCAAU | 1.95
GUCCUU | 2.01
CGUGGG | 1.85
AAUCUU | 2
CCCAGC | 2.06
AGACAG | 1.94
UACCUG | 1.86
CGUCGG | 2.01

Data origin: the supplement of paper PMC6757056
